These data points were gathered from PubChem BioAssay (Tox21).

target: Luciferin 4-monooxygenase (Photinus pyralis) (UniProt P08659); test: qHTS assay to identify small molecule inhibitors of firefly luciferase (AID 1224835); also: nearly all actives have a fitted effect of over 25% in size; details: purified P. pyralis luciferase, luminescence inhibition; series mostly up to 115 µM
Sequence (P08659 whole entry, looked up): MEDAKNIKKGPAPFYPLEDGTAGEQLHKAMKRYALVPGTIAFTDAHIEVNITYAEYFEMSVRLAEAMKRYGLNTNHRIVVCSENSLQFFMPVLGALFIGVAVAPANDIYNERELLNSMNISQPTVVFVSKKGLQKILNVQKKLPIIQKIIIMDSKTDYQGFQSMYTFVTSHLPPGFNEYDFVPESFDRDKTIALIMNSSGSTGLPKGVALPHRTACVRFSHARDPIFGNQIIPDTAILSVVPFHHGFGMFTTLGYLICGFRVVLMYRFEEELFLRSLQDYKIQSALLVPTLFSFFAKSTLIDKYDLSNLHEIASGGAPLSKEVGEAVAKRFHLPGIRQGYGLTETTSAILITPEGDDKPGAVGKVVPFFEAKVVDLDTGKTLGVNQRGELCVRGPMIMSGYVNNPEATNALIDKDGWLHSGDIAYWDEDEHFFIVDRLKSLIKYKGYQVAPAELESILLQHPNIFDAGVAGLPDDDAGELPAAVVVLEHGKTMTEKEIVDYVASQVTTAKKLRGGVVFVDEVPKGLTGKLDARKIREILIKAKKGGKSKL
Results filed as inconclusive are left out. Activity calls are given as the source filed them. Calls follow the shape of the dose curve; as a rule, active = well fitted inhibition curve with a large enough effect in the repeat runs; inconclusive = weak or mixed curves; inactive = flat fitted curve, though single readings scatter.
Parameter call: string, one of active, inactive

Some solved cases for reference:
{"Compound": "Nc1cc(Cl)ccc1O", "Assigned label": "inactive"}
{"Compound": "CCOP(=S)(OCC)SCSc1ccc(Cl)cc1", "Assigned label": "inactive"}
{"Compound": "CCCSC(=O)N(CCC)CCC", "Assigned label": "inactive"}
{"Compound": "CC(C)[N+](=O)[O-]", "Assigned label": "inactive"}
{"Compound": "COC(C)(C)C", "Assigned label": "inactive"}

Query: recorded result category for "N#CCCC#N" in this test
inactive

Query: recorded result category for "C=CCC1=C(C)[C@@H](OC(=O)[C@@H]2[C@@H](C=C(C)C)C2(C)C)CC1=O" in this test
inactive

Query: recorded result category for CCOP(=S)(Oc1cnc(C(C)(C)C)nc1)OC(C)C (configuration not stated) in this test
inactive

Query: recorded result category for "COC(=O)C1=CCCN(C)C1" in this test
inactive

Query: recorded result category for CC(C)(C)C(=O)C(Oc1ccc(Cl)cc1)n1cncn1 (configuration not stated) in this test
inactive

Query: recorded result category for "NC(=S)C(N)=S" in this test
inactive

Query: recorded result category for "CC1(C)CON(Cc2ccccc2Cl)C1=O" in this test
inactive

Query: recorded result category for "COP(=S)(OC)Oc1ccc(S(N)(=O)=O)cc1" in this test
inactive

Query: recorded result category for "CCCCOC(=O)[C@@H](C)Oc1ccc(Oc2ccc(C#N)cc2F)cc1" in this test
inactive

Query: recorded result category for "Cc1ncc2n1-c1ccc(Cl)cc1C(c1ccccc1F)=NC2" in this test
inactive

Query: recorded result category for CC(C)(C)NCC(O)c1cc(Cl)c(N)c(Cl)c1 (configuration not stated) in this test
inactive

Query: recorded result category for "O=NN1CCN(N=O)CC1" in this test
inactive

Query: recorded result category for CC(=O)CC(c1ccc(Cl)cc1)c1c(O)c2ccccc2oc1=O (configuration not stated) in this test
inactive

Query: recorded result category for "CNNC" in this test
inactive

Query: recorded result category for "CCOP(=S)(OCC)Oc1cc(-c2ccccc2)on1" in this test
active

Query: recorded result category for "CCCCc1c(C)nc(NCC)[nH]c1=O" in this test
inactive

Query: recorded result category for "CSc1ccc(C(=O)C(C)(C)N2CCOCC2)cc1" in this test
inactive

----------
test: A CellTox Green Cytotoxicity Assay to monitor cytotoxicity in HepG2 cells - 32 hour (AID 1224883); conditions: CellTox Green fluorescence; series mostly up to 76.8 µM; also: nearly all actives have a fitted effect of over 50% in size
Inconclusive results are not listed. Activity calls are given as the source filed them. Calls come from the whole dose curve; as a rule, active = well fitted activation curve with a large enough effect in the repeat runs; inconclusive = weak or mixed curves; inactive = flat fitted curve, though single readings scatter.
Parameter call: string, one of 1.0 = active, 0.0 = inactive

Some solved cases for reference:
{"Molecule": "Fc1cc(Br)ccc1CBr", "Assigned label": 0.0}
{"Molecule": "O=C(Nc1ccccc1)N(Cc1ccc(Cl)cc1)C1CCCC1", "Assigned label": 0.0}
{"Molecule": "c1cc2c(c(N3CCNCC3)c1)OCCO2", "Assigned label": 0.0}

Query: recorded result category for "CCOC(=O)NC(=S)Nc1ccccc1NC(=S)NC(=O)OCC" in this test
0.0

Query: recorded result category for "ClCC(Cl)Cl" in this test
0.0
